Target: T1, EsCas13d, nuclease-dead (Eubacterium siraeum, UniProt B0MS50, R295A;H300A;R849A;H854A)
T1 sequence: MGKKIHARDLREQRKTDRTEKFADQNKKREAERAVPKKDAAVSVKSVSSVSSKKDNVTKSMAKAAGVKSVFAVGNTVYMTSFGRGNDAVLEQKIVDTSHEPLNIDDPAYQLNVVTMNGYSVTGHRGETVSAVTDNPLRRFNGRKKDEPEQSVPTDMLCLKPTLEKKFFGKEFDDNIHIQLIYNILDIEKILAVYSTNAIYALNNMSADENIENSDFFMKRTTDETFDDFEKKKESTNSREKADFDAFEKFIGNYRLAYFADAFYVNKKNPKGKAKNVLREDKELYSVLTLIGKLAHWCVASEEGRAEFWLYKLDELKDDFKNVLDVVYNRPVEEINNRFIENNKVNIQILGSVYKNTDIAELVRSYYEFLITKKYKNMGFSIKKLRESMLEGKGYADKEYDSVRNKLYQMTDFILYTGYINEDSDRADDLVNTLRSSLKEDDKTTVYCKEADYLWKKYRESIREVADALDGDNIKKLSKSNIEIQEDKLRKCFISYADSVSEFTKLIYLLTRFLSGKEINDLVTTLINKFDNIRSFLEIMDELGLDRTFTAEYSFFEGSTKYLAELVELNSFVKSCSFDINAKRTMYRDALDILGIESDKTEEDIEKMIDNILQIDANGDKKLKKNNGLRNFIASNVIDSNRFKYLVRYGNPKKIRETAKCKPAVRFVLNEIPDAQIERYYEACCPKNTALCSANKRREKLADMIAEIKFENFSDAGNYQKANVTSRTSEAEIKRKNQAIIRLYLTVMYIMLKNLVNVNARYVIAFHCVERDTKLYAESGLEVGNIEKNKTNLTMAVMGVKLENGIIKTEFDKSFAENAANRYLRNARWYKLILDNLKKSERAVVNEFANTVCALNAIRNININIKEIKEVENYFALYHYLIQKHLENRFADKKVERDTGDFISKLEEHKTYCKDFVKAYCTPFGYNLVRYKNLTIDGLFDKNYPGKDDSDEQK
Test: crRNA (strand 1, pre-loaded); Mg2+; 40 mM Tris-HCl pH 7.5, 150 mM NaCl, 6 mM MgCl2, 1 mM DTT, 0.1% Tween-20, 0.2 mg/ml BSA; 25 C; 10 min per concentration, then washed
Conditions: tags: His6-TwinStrep-SUMO cleaved; N-terminal SNAP kept (SNAP-Surface 488); label: 3' end held by stalled T7 RNA polymerase
endpoint name: pKd
Give bare numbers, as −log10 of the molar value.

INSERT INTO measurements (binder, number) VALUES
  ('target 1 insC 3'' of 20,insC 3'' of 11 (mixed) RNA 1: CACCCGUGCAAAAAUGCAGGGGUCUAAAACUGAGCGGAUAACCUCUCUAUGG RNA 2: GGGAAUGGAUCCACAUCUACGAAUUCGUACCACUAGAGAGGUCUAUCCGCUCACCGAGAUCGGAAGAGCACACGU', 7.95);

// next item, pKd requested
For record target 1 C2U,G13U (mixed) RNA 1: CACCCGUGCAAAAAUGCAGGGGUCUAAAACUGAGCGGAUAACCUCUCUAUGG RNA 2: GGGAAUGGAUCCACAUCUACGAAUUCGUACCAUAGAGAUGUUAUCCGCUUACCGAGAUCGGAAGAGCACACGU the listed pKd is 7.17
